Documented FOB Fold Over Background across a set of binders
# assay-target: T1, mouse TREM1 on CHO cells (mouse, UniProt Q9JKE2 21-230)
# T1 construct: also called CHO-mT1
# T1 sequence: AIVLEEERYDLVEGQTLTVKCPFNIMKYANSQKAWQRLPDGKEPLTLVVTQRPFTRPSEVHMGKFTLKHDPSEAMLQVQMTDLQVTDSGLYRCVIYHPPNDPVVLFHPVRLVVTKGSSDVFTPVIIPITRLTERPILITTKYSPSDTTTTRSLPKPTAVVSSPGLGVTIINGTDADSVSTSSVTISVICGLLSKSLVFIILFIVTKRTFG
# test-name: FACS, CHO mouse TREM1
outcome-measure: FOB Fold Over Background (fold)

- T1-19 (antibody, IgG1, V domains shown, huIgG1; also called TI-19; ADI-19086) VH: EVQLVESGGGLVQPGGSLRLSCAASGFTFSDHHMDWVRQAPGKGLEWVGRTRNKANSYTTEYAASVKGRFTISRDDSKNSLYLQMNSLKTEDTAVYYCARGPLGYKLWGQGTLVTVSS VL: DIQMTQSPSSVSASVGDRVTITCRASQGISSWLAWYQQKPGKAPKLLIYAASNLQSGVPSRFSGSGSGTDFTLTISSLQPEDFATYYCQQANSFPLTFGGGTKVEIK: 0.9
- T1-16 (antibody, IgG1, V domains shown, huIgG1; also called TI-16; ADI-19083) VH: EVQLVESGGGLVQPGRSLRLSCAASGFTFDDYAMHWVRQAPGKGLEWVSGISWNSGSIGYADSVKGRFTISRDNAKNSLYLQMNSLRAEDTALYYCAKGPRMSGWWADWGQGTLVTVSS VL: DIQMTQSPSSVSASVGDRVTITCRASQGISSWLAWYQQKPGKAPKLLIYAASSLQSGVPSRFSGSGSGTDFTLTISSLQPEDFATYYCQQADTLPITFGGGTKVEIK: 1
- T1-29 (antibody, IgG1, V domains shown, huIgG1; also called TI-29) VH: QLQLQESGPGLVKPSETLSLTCTVSGGSISSSSYYWGWIRQPPGKGLEWIGSIYYSGSTYYNPSLKSRVTISVDTSKNQFSLKLSSVTAADTAVYYCARDGGGTAQADGAYYYGMDVWGQGTTVTVSS VL: EIVLTQSPATLSLSPGERATLSCRASQSVSSYLAWYQQKPGQAPRLLIYDASNRATGIPARFSGSGSGTDFTLTISSLEPEDFAVYYCQQGVNYPFTFGGGTKVEIK: 401
- T1-21 (antibody, IgG1, V domains shown, huIgG1; also called TI-21; ADI-19088) VH: EVQLVESGGGLVQPGGSLRLSCAASGFTFSSYSMNWVRQAPGKGLEWVSYISSSSSTIYYADSVKGRFTISRDNAKNSLYLQMNSLRAEDTAVYYCARGGPLGYGDYKGMDVWGQGTTVTVSS VL: DIQLTQSPSSLSASVGDRVTITCRASQSISSFLNWYQQKPGKAPKLLIYAASSLQSGVPSRFSGSGSGTDFTLTISSLQPEDFATYYCQQSYSDLTFGGGTKVEIK: 0.5
- T1-23 (antibody, IgG1, V domains shown, huIgG1; also called TI-23; ADI-19090) VH: EVQLVESGGGLVQPGRSLRLSCAASGFTFDDYAMHWVRQAPGKGLEWVSGITWNSGSIGYADSVKGRFTISRDNAKNSLYLQMNSLRAEDTALYYCAKGPRLLSALDVWGQGTMVTVSS VL: DIQMTQSPSTLSASVGDRVTITCRASQSIGSWLAWYQQKPGKAPKLLIYKASSLESGVPSRFSGSGSGTEFTLTISSLQPDDFATYYCQQHQSFSPTFGGGTKVEIK: 1
- T1-27 (antibody, IgG1, V domains shown, huIgG1; also called TI-27) VH: QVQLQESGPGLVKPSQTLSLTCTVSGGSISSGGYYWSWIRQHPGKGLEWIGYIYYSGSTYYNPSLKSRVTISVDTSKNQFSLKLSSVTAADTAVYYCARDSSIAGRATLSFDYWGQGTLVTVSS VL: DIQMTQSPSSLSASVGDRVTITCRASQSISSYLNWYQQKPGKAPKLLIYAASSLQSGVPSRFSGSGSGTDFTLTISSLQPEDFATYYCQQSFYDPITFGGGTKVEIK: 523
- T1-28 (antibody, IgG1, V domains shown, huIgG1; also called TI-28) VH: EVQLVESGGGLVKPGGSLRLSCAASGFTFSSYSMNWVRQAPGKGLEWVSSISSSSNYIYYADSVKGRFTISRDNAKNSLYLQMNSLRAEDTAVYYCARGPSQYYYDSSAIEAFDIWGQGTMVTVSS VL: EIVLTQSPATLSVSPGERATLSCRASQSVGSNLAWYQQKPGQAPRLLIYGASTRATGIPARFSGSGSGTEFTLTISSLQSEDFAVYYCQQYLYFPLTFGGGTKVEIK: 408
